# TARGET OR SYSTEM: Kappa-type opioid receptor (Cavia porcellus)
# Sequence (P41144 whole entry): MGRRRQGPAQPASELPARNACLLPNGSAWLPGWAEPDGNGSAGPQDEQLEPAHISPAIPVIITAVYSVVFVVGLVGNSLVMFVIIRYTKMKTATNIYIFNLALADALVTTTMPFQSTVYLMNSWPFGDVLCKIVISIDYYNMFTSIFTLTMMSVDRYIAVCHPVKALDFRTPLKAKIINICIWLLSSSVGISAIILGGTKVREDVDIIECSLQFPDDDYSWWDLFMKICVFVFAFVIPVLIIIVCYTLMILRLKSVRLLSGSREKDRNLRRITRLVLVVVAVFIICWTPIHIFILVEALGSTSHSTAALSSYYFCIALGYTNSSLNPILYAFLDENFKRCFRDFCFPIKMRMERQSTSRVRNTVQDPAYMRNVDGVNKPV
# TEST DESCRIPTION: Inhibition of [3H]EKC binding to Opioid receptor kappa 1 in guinea pig forebrain
pKi: −log10 of the molar value.

{"columns": ["CHEMICAL STRING", "TARGET OR SYSTEM", "pKi"],
 "data": [
  ["O=C1[C@@H](c2ccc(Cl)c(Cl)c2)CCN1[C@H]1CCCC[C@@H]1N1CCCC1", "Kappa-type opioid receptor (Cavia porcellus)", 8.00]
]}

###

# TARGET OR SYSTEM: UniProt:P41144
# TEST DESCRIPTION: Inhibition of [3H]diprenorphine binding to Opioid receptor kappa 1 in guinea pig cerebellar fraction
pKi: −log10 of the molar value.
OBSERVED PROPERTY: pKi

{"columns": ["CHEMICAL STRING", "TARGET OR SYSTEM", "RESULT VALUE"],
 "data": [
  ["COC(=O)[C@]1(c2ccccc2)C[C@@H]1CN1CC[C@@]2(C)c3cc(O)ccc3CC1[C@@H]2C", "UniProt:P41144", 6.62]
]}
